Known Viability d12 (relative viability) of a selection of molecules
Tested on: E. multilocularis metacestode vesicles
Assay: Metacestode vesicle viability assay (ATP, CellTiter-Glo)
Type: cell-based, Echinococcus multilocularis
Conditions: confirmation screen, 10 μM, triplicates, mean, 12 days
API: value field is a number in %; no unit string.

# Viability d12 (relative viability) lookup, item Nc1nc(=O)c(Br)c(-c2ccccc2)[nH]1
98.22

# Viability d12 (relative viability) lookup, item CCOCc1nc2c(N)nc3ccccc3c2n1CC(C)(C)O
159.08

# Viability d12 (relative viability) lookup, item CCCCOC(=O)Nc1cc2nc(C3CCCCC3)[nH]c2cc1N(CC)CC
57.98

# Viability d12 (relative viability) lookup, item O=C(Nc1ccc(Cl)c(C(F)(F)F)c1)C(CCCl)C(=O)Nc1ccc(Cl)c(C(F)(F)F)c1
81.80

# Viability d12 (relative viability) lookup, item CC(C)N=c1cc2n(-c3ccc(Cl)cc3)c3ccccc3nc-2cc1Nc1ccc(Cl)cc1
142.49

# Viability d12 (relative viability) lookup, item COc1ccc2nc(-c3ccccc3)cc(O)c2c1
78.39

###

Known PGI d5 (relative PGI release) of a selection of compounds
Test system: E. multilocularis metacestode vesicles
Experiment: Phosphoglucose isomerase (PGI) release assay (damage-marker release) on metacestode vesicles
Type: cell-based, Echinococcus multilocularis
Conditions: overview screen, 10 μM, singlets, 5 days, relative to 0.1 % Triton X-100, DMSO subtracted

Sample answers from the record:
CC(C)(C)NC(=O)[C@@H]1CN(Cc2cnc3occc3c2)CCN1C[C@@H](O)C[C@@H](Cc1ccccc1)C(=O)N[C@H]1c2ccccc2C[C@H]1O ... 0.2673%
Oc1ccc(NCc2ccccc2OCc2ccccc2)cc1 ... -1.084%
OCCC#Cc1nc(-c2ccc(F)cc2)c(-c2ccncc2)n1CCCc1ccccc1 ... 0.809%
Cc1cc(O)c2c(c1)C(=O)c1c(I)c(C)c(I)c(O)c1C2=O ... 18.0887%
O=c1[nH]c(=O)n(Cc2cccc(Oc3ccccc3)c2)cc1Nc1ccccc1 ... 0.6712%
NC[C@H]1O[C@H](O[C@H]2[C@H](O)[C@@H](O[C@H]3O[C@H](CO)[C@@H](O)[C@H](N)[C@H]3O)[C@H](N)C[C@@H]2N)[C@H](N)C[C@@H]1O ... -1.087%
CN(C)CCNC(=O)c1cccc2cccnc12 ... 0.8254%
Cl.Cl.NCCCc1ccccc1C(=O)Nc1ncc([N+](=O)O)s1 ... -0.3411%
CC(C)(C)c1ccc(OCCn2nc(C(=O)O)c3ccccc3c2=O)cc1 ... -1.414%
CCn1cc(C(=O)O)c(=O)c2cc(F)c(N3CCNC(C)C3)c(F)c21.Cl (centres unmarked) ... 0.8503%

Notebook: pull reported PGI d5 (relative PGI release) for E. multilocularis metacestode vesicles, entry CCCCSc1nc(N)c2[nH]c(=O)c(=O)n(Cc3ccccc3)c2n1
3.365%

Notebook: pull reported PGI d5 (relative PGI release) for E. multilocularis metacestode vesicles, entry Fc1ccc2c(/C=C/c3nnn[nH]3)c[nH]c2c1
-0.5513%

Notebook: pull reported PGI d5 (relative PGI release) for E. multilocularis metacestode vesicles, entry CC1CN(c2ncnc3c2c(-c2ccccc2)cn3-c2ccc(F)cc2)CC(C)O1 (centres unmarked)
0.6968%

Notebook: pull reported PGI d5 (relative PGI release) for E. multilocularis metacestode vesicles, entry NS(=O)(=O)c1ccc(NC(=O)NC(c2ccccc2)c2ccccc2)cc1
-0.6102%

Notebook: pull reported PGI d5 (relative PGI release) for E. multilocularis metacestode vesicles, entry Cc1cc(C)n2nc(C(=O)NS(=O)(=O)c3c(C)cccc3OC(F)(F)F)nc2n1
-1.59%

Notebook: pull reported PGI d5 (relative PGI release) for E. multilocularis metacestode vesicles, entry O=S(=O)(Nc1ccc(-n2cccc2)cc1)c1ccc(Cl)c(Cl)c1
-0.09064%

Notebook: pull reported PGI d5 (relative PGI release) for E. multilocularis metacestode vesicles, entry COc1c(NC(=O)[C@H]2CC[C@@H](COc3ccc([N+](=O)[O-])cc3)CC2)c(F)cc2c(=O)c(C(=O)O)cn(C3CC3)c12
0.7075%
